System: CYP3A
Assay: Example 2: lurasidone pharmacokinetics during and after posaconazole (drug-drug interaction)
Assay type: in vivo
Settings: human, plasma, oral, 20 mg, Obese, Day 26 (posaconazole given Days 4-17); read-out: Lurasidone elimination half-life, arithmetic mean ± S.E. (converted)
parameter: half-life (h)

structureSmiles	parameter	value
O=C1[C@@H]2[C@H]3CC[C@H](C3)[C@@H]2C(=O)N1C[C@@H]1CCCC[C@H]1CN1CCN(c2nsc3ccccc23)CC1	half-life	61

* * *

Assay: Plasma ranolazine pharmacokinetics before, during and after posaconazole in normal-weight and obese subjects
Assay type: in vivo, human
Conditions: human, plasma, oral, 500 mg, Day 29 (14 days after last posaconazole dose); normal-weight subjects; ranolazine 500 mg ER; mean ± SD; read-out: Cmax

molecule	unitTag	Cmax
COc1ccccc1OCC(O)CN1CCN(CC(=O)Nc2c(C)cccc2C)CC1 (stereo not shown)	ng/mL	751
